Could you please report measured melting point for the items listed next?

CON(c1ccc(C#N)cc1Cl)S(=O)(=O)c1ccc(C)cc1	145 to 147 °C
CCOC(=O)c1cccc(NC(=O)C(COS(C)(=O)=O)NS(=O)(=O)c2ccc(Cl)cc2)c1 (racemic)	125 to 129 °C

For each of the compounds below, state melting point.
1. CCC1(CCCCN2CCc3sccc3C2)C(=O)Nc2cc(F)c(Cl)cc21 (stereo not given)
2. CC(C)CCC(=O)OC1c2ccccc2C(=O)N1c1ccc2ccc(F)nc2n1 (stereo not given)
3. CCCN(Cc1ccccc1C(=O)O)c1ccc(CC(=O)O)cc1
4. CCCCCCCCCCCCOCC1CN(c2cc3c(cc2F)c(=O)c(C(=O)O)cn3CC)CCN1C (stereo not given)
5. CN(C)C(=O)Nc1ccc2c(c1)C(CN1CCC(c3ccc(F)cc3)CC1)CC2 (stereo not given)
6. CC(C)(O)C(=O)N[C@H]1CC[C@H](CCN2CCN(c3nccc4c3CCO4)CC2)CC1

Output:
["155 to 157 °C", "154 °C", "163 °C", "166 to 168 °C", "141 to 144 °C", "201 °C"]

* * *

Provide the recorded melting point for the entries that follow.

Worked set:
CCOC(=O)c1ncn(Cc2c(F)cccc2F)c1C(=O)OCC	70 to 72 °C
COc1cc(C=CC(=O)Nc2c(C)nc3c(C)cc(C)cc3c2-c2ccccc2Cl)cc(OC)c1OC(C)=O	225 to 226 °C
O=C(O)c1ccccc1C(=O)NCCC(Oc1c(Br)cc(-c2ccc(-c3c(Cc4ccccc4)sc4ccccc34)cc2)cc1Br)C(=O)O (stereo not drawn)	130 to 132 °C
CC(C)(C)OC(=O)NC1CCCCCC=CC2CC2(C(=O)NS(=O)(=O)C2CC2)NC(=O)C2CC(OC(=O)c3ccc(Cl)c(F)c3)CN2C1=O (stereo not drawn)	147 to 149 °C

Provide melting point values for the following items, in order.
1. OC1CCCc2nc3ccccc3c(NCc3ccc(C(F)(F)F)cc3)c21 (stereo not drawn)
2. Cc1ccc(C(=O)NC(NC(=S)Nc2cccc(C)c2)C(F)(F)F)cc1 (stereo not drawn)
3. O=C(Cl)C1CCN(c2cc(-c3ccccc3)nc3ccc(F)cc23)CC1
4. O=Cc1cccc2nnsc12

Output:
1. 174 to 176 °C
2. 197 to 198 °C
3. 243 to 245 °C
4. 134 to 136 °C

* * *

measured.endpoint: melting point

CC1(C)Oc2ccc(S(C)(=O)=O)cc2[C@@H](N2CCSC2=NC#N)[C@@H]1O (relative stereo)	304 to 307 °C
Cc1ccc(S(=O)(=O)NC(=O)N2C(=O)C(c3ccccc3)N2C(c2ccccc2)c2ccccc2)cc1 (stereo not drawn)	154 to 156 °C
COCC(=O)OC1(C(=O)COC(=O)C(C)C)CCC2C3CC(C)C4=CC(=O)C=CC4(C)C3C(O)CC21C (stereo not drawn)	148 to 150 °C
CCCOc1ccc2c(c1)[C@@H](c1ccc(OC)cc1OCCO)[C@H](C(=O)O)[C@H]2c1ccc2c(c1)OCO2	125 to 127 °C
CCOC(=O)C1=Cc2cc(C=NO)ccc2OC1C(F)(F)F (stereo not drawn)	113 to 116 °C

Okay, here is my list. What is melting point for each of these?
1. CCn1nnc(-c2ccc(CN3CCC(C(O)(c4ccc5c(c4)OC(F)(F)O5)c4ccc5c(c4)OC(F)(F)O5)CC3)cc2)n1
2. Cc1cc(-c2cc(O)c(Cl)cc2F)c(=O)n(C)c1C(F)(F)F
3. CCCn1ncc2c(=O)[nH]c(-c3cc(C(=O)CN4CCOCC4)ccc3OCC)nc21

Output:
79 to 81 °C
207 to 208 °C
160 to 162 °C

Your task in this section: give melting point for each listed record.
1. CCc1cc(NC(=O)c2nnn(Cc3ccccc3)n2)c(O)c(C(C)=O)c1
2. N#CC1CC2CCC(C1)N2Cc1ccccc1 (stereo not drawn)
3. COCCOc1ccc(CCCNS(=O)(=O)c2ccc(Cl)cc2)c(Oc2ncc(C(F)(F)F)cc2Cl)c1
4. CN(C)CCOc1ccc(N(CCN(C)C)c2nccc(-c3ccncc3)n2)cc1

Output:
1: 159 to 161 °C; 2: 119 to 120 °C; 3: 111 to 113 °C; 4: 87 to 91 °C
